interaction score by entry:
Target: T1, 4H2614-AA
T1 chain: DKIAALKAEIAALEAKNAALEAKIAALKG
Test: two-hybrid library CCmax;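 note: natural log of median RNA to DNA barcode read ratio; higher means stronger binding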
Conditions: mean of both orientations

> print(dat)
                                     binder      quantity.kind  test.value
1  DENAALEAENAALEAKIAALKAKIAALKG [4H1198-AA]  interaction score      -0.463
2  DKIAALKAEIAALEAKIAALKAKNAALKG [4H2608-AA]  interaction score      -0.644
3  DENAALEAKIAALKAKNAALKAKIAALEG [4H1405-AA]  interaction score        1.52

Let us examine a further case.
What does the data say about its interaction score? Entry: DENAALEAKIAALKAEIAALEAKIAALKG [4H1350-AA]
-0.142
